Recorded fold increase 3H incorporation by entry
system: HeLa cells, 3H-mannose incorporation into glycoproteins; experiment: increase in 3H-mannose incorporation into HeLa proteins, late-stage follow-up, orthogonal assay for PMI inhibitor project, HeLa cells (AID 1553); details: at 100 µM;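 further: 1 fold = DMSO treated HeLa control cells; higher fold signals phosphomannose isomerase inhibition routing mannose into glycosylation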
I'd appreciate a reply containing only the number, no unit.

Previously resolved entries follow.
mol=Cc1ccc(C)c(-n2[nH]c3ccccc3c2=O)c1 observable="fold increase 3H incorporation" reading=0.8
mol=CC(C)(C)c1ccc(N=c2ssnc2Cl)cc1 observable="fold increase 3H incorporation" reading=1
mol=COc1cc(N=c2ssnc2Cl)cc(OC)c1 observable="fold increase 3H incorporation" reading=1.9

## Input Quote fold increase 3H incorporation reported for Cc1ccc(C)c(-n2sc3ccc(F)cc3c2=O)c1 please.
## Output 1

## Input Quote fold increase 3H incorporation reported for Cc1cccc(N=c2ssnc2Cl)c1 please.
## Output 0.7

## Input Quote fold increase 3H incorporation reported for Cc1[nH]n(-c2ccccc2)c(=S)c1C=Nc1cccc([N+](=O)[O-])c1 please.
## Output 0.7

## Input Quote fold increase 3H incorporation reported for S=c1nc(-c2cccc(Br)c2)[nH][nH]1 please.
## Output 0.9

## Input Quote fold increase 3H incorporation reported for Oc1ccc(N=c2ssnc2Cl)cc1 please.
## Output 0.7

----------
Recorded fold increase 3H incorporation by entry
system: HeLa cells, 3H-mannose incorporation into glycoproteins; experiment: increase in 3H-mannose incorporation into HeLa proteins, late-stage follow-up, orthogonal assay for PMI inhibitor project, HeLa cells (AID 1553); conditions: at 100 µM
Activity calls are given as the source filed them.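 Rule for the calls: active = compounds graded as giving a low, moderate or strong rise in tritium labelling of cell protein versus solvent control; inactive = the rest.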

compound=S=c1nc(-c2ccccc2Br)[nH][nH]1 targetofassay="HeLa cells, 3H-mannose incorporation into glycoproteins" reading="0.9 (inactive)"
compound=COc1cc(N=c2ssnc2Cl)c(OC)cc1Cl targetofassay="HeLa cells, 3H-mannose incorporation into glycoproteins" reading=1.9
compound=OCc1ccccc1N=c1ssnc1Cl targetofassay="HeLa cells, 3H-mannose incorporation into glycoproteins" reading="0.9 (inactive)"
compound=O=c1c2ccccc2sn1-c1cc(S(=O)(=O)N2CCOCC2)ccc1N1CCOCC1 targetofassay="HeLa cells, 3H-mannose incorporation into glycoproteins" reading="0.4 (inactive)"
compound=O=C(O)CCn1cc(C=C2C(=O)NC(=S)NC2=O)c(-c2cccc(Br)c2)n1 targetofassay="HeLa cells, 3H-mannose incorporation into glycoproteins" reading="0.8 (inactive)"
compound=Cc1c(Cl)cccc1-n1sc2cc([N+](=O)[O-])cc(OCC(F)(F)F)c2c1=O targetofassay="HeLa cells, 3H-mannose incorporation into glycoproteins" reading="1.1 (inactive)"
compound=COc1cc(N=c2ssnc2Cl)cc(OC)c1OC targetofassay="HeLa cells, 3H-mannose incorporation into glycoproteins" reading="1.2 (inactive)"
compound="O=C1c2ccccc2SC1c1ccccc1 (configuration not stated)" targetofassay="HeLa cells, 3H-mannose incorporation into glycoproteins" reading=1.7
compound=Cc1cccc(-n2sc3cc(F)ccc3c2=O)c1C targetofassay="HeLa cells, 3H-mannose incorporation into glycoproteins" reading=0.5
compound=Cc1ccc(N=c2ssnc2Cl)cc1 targetofassay="HeLa cells, 3H-mannose incorporation into glycoproteins" reading=1.6

## Input Quote fold increase 3H incorporation reported for O=c1c2ccccc2sn1-c1cccc(C(F)(F)F)c1 please.
## Output 0.7

## Input Quote fold increase 3H incorporation reported for Clc1nssc1=Nc1ccc(Br)cc1 please.
## Output 0.5

## Input Quote fold increase 3H incorporation reported for Cc1ccc(C)n1-c1nc(=S)[nH][nH]1 please.
## Output 1 (inactive)

## Input Quote fold increase 3H incorporation reported for O=c1c2ccccc2sn1-c1ccc(Cl)cc1 please.
## Output 0.6

----------
Recorded fold increase 3H incorporation by entry
tested on: HeLa cells, 3H-mannose incorporation into glycoproteins; assay: increase in 3H-mannose incorporation into HeLa proteins, late-stage follow-up, orthogonal assay for PMI inhibitor project, HeLa cells (AID 1553); settings: at 100 µM
I'd appreciate a reply containing only the number, no unit.

Previously resolved entries follow.
compound=Cc1ccc(C)c(-n2sc3ccccc3c2=O)c1 reading=1.5
compound=O=[N+]([O-])c1ccc(N=c2ssnc2Cl)c([N+](=O)[O-])c1 reading=1.5
compound=COc1ccc(N=c2ssnc2Cl)cc1OC reading=0.1
compound=Clc1cccc(N=c2ssnc2Cl)c1 reading=0.4

## Input Quote fold increase 3H incorporation reported for O=c1c2ccc(F)cc2sn1-c1cc(Cl)ccc1Cl please.
## Output 0.8

## Input Quote fold increase 3H incorporation reported for COc1cc(-c2nc(=S)[nH][nH]2)cc(OC)c1OC please.
## Output 0.8

## Input Quote fold increase 3H incorporation reported for CN(C)c1ccc(N=c2ssnc2Cl)cc1 please.
## Output 1

## Input Quote fold increase 3H incorporation reported for COC(=O)c1cccc(-n2sc3ccccc3c2=O)c1 please.
## Output 1.7

## Input Quote fold increase 3H incorporation reported for COc1ccc(-c2nc(=S)[nH][nH]2)cc1 please.
## Output 0.8

## Input Quote fold increase 3H incorporation reported for COc1cccc(-n2sc3ccccc3c2=O)c1 please.
## Output 1.4

## Input Quote fold increase 3H incorporation reported for S=c1nc(-c2cccc(Cl)c2)[nH][nH]1 please.
## Output 1

## Input Quote fold increase 3H incorporation reported for O=c1c2ccccc2sn1-c1cccc(S(=O)(=O)Nc2ccc(Cl)cc2)c1 please.
## Output 0.7

----------
test system: HeLa cells, 3H-mannose incorporation into glycoproteins; test: increase in 3H-mannose incorporation into HeLa proteins, late-stage follow-up, orthogonal assay for PMI inhibitor project, HeLa cells (AID 1553); details: fold increase; at 25 µM; stronger effect = higher value;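 further: 1 fold = DMSO treated HeLa control cells; higher fold signals phosphomannose isomerase inhibition routing mannose into glycosylation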
Please mark YES if the recorded fold increase 3H incorporation is equal to or greater than 1, and NO if it falls below.

See these solved cases before continuing.
compound=O=c1c2ccccc2sn1-c1cccc(I)c1 label=YES
compound=Cc1cccc(-n2sc3cc(F)ccc3c2=O)c1C label=YES
compound=Cc1ccc(N=c2ssnc2Cl)c([N+](=O)[O-])c1 label=YES

## Input Does the reported fold increase 3H incorporation for COc1cc(N=c2ssnc2Cl)cc(OC)c1OC fall at or above the 1 mark?
## Output YES

## Input Does the reported fold increase 3H incorporation for Cc1ccc(C)c(-n2sc3ccc(F)cc3c2=O)c1 fall at or above the 1 mark?
## Output YES

## Input Does the reported fold increase 3H incorporation for Cc1ccc(-n2sc3ccccc3c2=O)cc1S(=O)(=O)N1CCCCC1 fall at or above the 1 mark?
## Output YES

## Input Does the reported fold increase 3H incorporation for O=c1c2cc(F)ccc2sn1-c1ccccc1 fall at or above the 1 mark?
## Output YES

## Input Does the reported fold increase 3H incorporation for Cc1ccc(N=c2ssnc2Cl)cc1[N+](=O)[O-] fall at or above the 1 mark?
## Output YES

## Input Does the reported fold increase 3H incorporation for Cc1ccc(N=c2ssnc2Cl)cc1 fall at or above the 1 mark?
## Output YES

## Input Does the reported fold increase 3H incorporation for COc1cc([N+](=O)[O-])ccc1N=c1ssnc1Cl fall at or above the 1 mark?
## Output YES

## Input Does the reported fold increase 3H incorporation for CN(C)c1cccc(N=c2ssnc2Cl)c1 fall at or above the 1 mark?
## Output NO

## Input Does the reported fold increase 3H incorporation for CN(C)S(=O)(=O)c1cccc(-n2sc3ccccc3c2=O)c1 fall at or above the 1 mark?
## Output YES

## Input Does the reported fold increase 3H incorporation for CC(C)(C)c1ccc(N=c2ssnc2Cl)cc1 fall at or above the 1 mark?
## Output NO

## Input Does the reported fold increase 3H incorporation for Clc1ccc(Nc2ccccc2N=c2ssnc2Cl)cc1 fall at or above the 1 mark?
## Output NO

----------
system: HeLa cells, 3H-mannose incorporation into glycoproteins; assay: increase in 3H-mannose incorporation into HeLa proteins, late-stage follow-up, orthogonal assay for PMI inhibitor project, HeLa cells (AID 1553); conditions: at 100 µM;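 further: 1 fold = DMSO treated HeLa control cells; higher fold signals phosphomannose isomerase inhibition routing mannose into glycosylation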
Recorded fold increase 3H incorporation by entry
I'd appreciate a reply containing only the number, no unit.

Previously resolved entries follow.
mol=Clc1nssc1=Nc1ccccc1 reading=1.9
mol=O=c1c2ccccc2sn1-c1cc(S(=O)(=O)N2CCOCC2)ccc1N1CCCC1 reading=0.7
mol=Cc1ccnc(-n2sc3ccccc3c2=O)n1 reading=1

## Input Quote fold increase 3H incorporation reported for O=c1c2c([N+](=O)[O-])cc([N+](=O)[O-])cc2sn1-c1ccc(F)c(Cl)c1 please.
## Output 0.7

## Input Quote fold increase 3H incorporation reported for O=c1c2ccc(O)cc2sn1C1CCCC1 please.
## Output 0.8

----------
test system: HeLa cells, 3H-mannose incorporation into glycoproteins; assay: increase in 3H-mannose incorporation into HeLa proteins, late-stage follow-up, orthogonal assay for PMI inhibitor project, HeLa cells (AID 1553); conditions: at 100 µM;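 further: 1 fold = DMSO treated HeLa control cells; higher fold signals phosphomannose isomerase inhibition routing mannose into glycosylation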
Active and inactive are the calls of the source.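 Rule for the calls: active = compounds graded as giving a low, moderate or strong rise in tritium labelling of cell protein versus solvent control; inactive = the rest.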
Outcome field: choose from active, inactive

mol=Clc1ccc(Nc2ccccc2N=c2ssnc2Cl)cc1 label=inactive
mol=CCOc1ccc(-c2nc(=S)[nH][nH]2)cc1 label=inactive

# input for lookup
## Input Can you look up the reported call for Cc1ccc(N=c2ssnc2Cl)nc1 for me?
## Output active
